# Read-out: Collagen III, COL3A1 (gene 1281)
# assay_explanation: BSK_hDFCGF_CollagenIII: BioMAP Diversity Plus: hDFCGF Assay for Collagen III Biomarker Activity (AID 2283056)
# stated_conditions: primary human foreskin fibroblasts; actives raise or lower the signal
Active and inactive are the calls of the source. How the source made its calls: active means hit-call score of the fitted dose curve at least 0.9, where 1 is the maximum; inactive means score below 0.9.
Outcomes: y (active), n (inactive)

compound | assigned_class
CCCCCCCCCCCCS | y
CCn1cc(C(=O)O)c(=O)c2ccc(C)nc21 | n
CCOC(=O)CCCCCCCCC(=O)OCC | n
O=S1(=O)CC(Cl)(Cl)C(Cl)(Cl)C1 | y
COC(=O)c1ccc(C(=O)OC)cc1 | n
CC(=O)OC(C)(C)C1CC=C(C)CC1 (stereo unspecified) | n
CCCCOCCOCCO | n
Nc1ccc(N)c([N+](=O)[O-])c1 | n
CCCO[Si](OCCC)(OCCC)OCCC | n
CC(=O)c1ccc(C)cc1 | n
C[C@]12CC[C@@H]3c4ccc(O)cc4CC[C@H]3[C@@H]1CC[C@@H]2O | y
C=C1CC/C=C(\C)CC[C@@H]2[C@@H]1CC2(C)C | y
CCC(=O)OCC=Cc1ccccc1 | n
NC(=O)c1c(Cl)cccc1Cl | n
CC(=O)OCC=C(C)CCC=C(C)CCC=C(C)C | y
CC(C)(C)c1cccc(O)c1 | n
CC(=O)CCC=C(C)CCC=C(C)C | n
CCCCCCCCCC(=O)OCC | y
c1ccc(Sc2ccccc2)cc1 | y
O=C1OC2(c3ccc(O)cc3Oc3cc(O)ccc32)c2ccccc21 | n
c1ccc(OCCOc2ccccc2)cc1 | n

* * *

# Read-out: urokinase plasminogen activator (uPA), PLAU (gene 5328)
# assay_explanation: BSK_BE3C_uPA: BioMAP Diversity Plus: BE3C Assay for urokinase plasminogen activator (uPA) Biomarker Activity (AID 2283038)
# stated_conditions: primary human bronchial epithelial cells; actives raise or lower the signal
Activity calls are given as the source filed them. How the source made its calls: active means hit-call score of the fitted dose curve at least 0.9, where 1 is the maximum; inactive means score below 0.9.
Outcomes: active, inactive

compound | assigned_class
C=C(C)C(N)=O | inactive
C#C[C@]1(O)CC[C@H]2[C@@H]3CCc4cc(O)ccc4[C@H]3CC[C@@]21C | inactive
CC(=O)c1ccc(C)cc1 | inactive
CC(C)Cc1ccc(C(C)C(=O)O)cc1 (stereo not drawn) | inactive
CC=CC(=O)C1=C(C)C=CCC1(C)C | inactive
CCCCCCCC1CCCC1=O (stereo not drawn) | active
CCCCN(CCO)CCO | inactive
CCOC(=O)C=Cc1ccccc1 | inactive

* * *

# system: Cellular tumor antigen p53 (Homo sapiens)
# assay_explanation: TOX21_p53_BLA_p5_ratio: Tox21 HCT-116 p53 Agonism Beta-lactamase Assay, Ratio, Phase 5 (AID 2283599)
Records with an inconclusive call do not appear. Calls of active or inactive are those of the source. Rule for the calls: active = hit-call score of the fitted dose curve at least 0.9, where 1 is the maximum; inconclusive = response in the unintended direction; inactive = score below 0.9.
Outcomes: active, inactive

compound | assigned_class
C/C=C(\C)C(=O)OC/C=C(\C)CCC=C(C)C | inactive
Nc1ccn([C@H]2CC[C@@H](CO)O2)c(=O)n1 | inactive
COc1ccc(C(C)=O)cc1 | inactive
CC(=O)C1C(=O)C=C(C)OC1=O (configuration not stated) | inactive
O=C(Nc1cccc(Cl)c1)OCC#CCCl | active
N=C1N=C(N)c2ccccc21 | active
C=C(C)C(=O)OCCC(C)OC(=O)C(=C)C (configuration not stated) | inactive

* * *

# system: Cellular tumor antigen p53 (Homo sapiens)
# assay_explanation: TOX21_p53_BLA_p3_ratio: Tox21 HCT-116 p53 Agonism Beta-lactamase Assay, Ratio, Phase 3 (AID 2283596)
Inconclusive results are not listed. Calls of active or inactive are those of the source. How the source made its calls: active means hit-call score of the fitted dose curve at least 0.9, where 1 is the maximum; inconclusive means response in the unintended direction; inactive means score below 0.9.

molecule | outcome
CCCCCCCC1CCCC1=O (stereo unspecified) | inactive
c1ccc(OCCOc2ccccc2)cc1 | inactive
O=C(O)c1ccco1 | inactive
c1ccc(Cc2ccccc2)cc1 | inactive
COC(=O)C(C)Oc1ccc(Oc2ncc(C(F)(F)F)cc2Cl)cc1 (stereo unspecified) | inactive
CN(C)CCC=C1c2ccccc2CCc2ccccc21 | inactive
CCOC(=O)C(=O)OCC | inactive
CCCCOCCOC(=O)c1ccccc1C(=O)OCCOCCCC | inactive
CCCCCCCCOC(C)=O | inactive
CCCCCCOC(C)=O | inactive
COc1ccccc1O | inactive
CCCCCCCCCOS(=O)(=O)O | inactive
NCCCOCCOCCOCCCN | inactive
CC(=O)CC(C)(C)C1CCCCC1 | inactive
[O-]/[N+](=N\O)c1ccccc1 | inactive
CC(=O)c1cccnc1 | inactive

* * *

# assay_explanation: BSK_BE3C_SRB: Viability Assessment in the BioMAP Diversity Plus: BE3C Assay (AID 2283028);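 further: measured 24 h after chemical dosing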
# stated_conditions: primary human bronchial epithelial cells
Calls of active or inactive are those of the source. The calls were made as follows: active = hit-call score of the fitted dose curve at least 0.9, where 1 is the maximum; inactive = score below 0.9.
Outcomes: Yes (active), No (inactive)

compound | assigned_class
OCCN1CCOCC1 | No
CCCCCCCCCC(=O)OCC | No
CC=CC(=O)C1=C(C)C=CCC1(C)C | No
CCCO[Si](OCCC)(OCCC)OCCC | No
O=C(c1ccc(OCCN2CCCCC2)cc1)c1c(-c2ccc(O)cc2)sc2cc(O)ccc12 | Yes
COC(=O)c1ccc(C(=O)OC)cc1 | No
C=C(C)C(=O)OCCC(F)(F)C(F)(F)C(F)(F)C(F)(F)C(F)(F)C(F)(F)C(F)(F)C(F)(F)F | No
O=S1(=O)CC(Cl)(Cl)C(Cl)(Cl)C1 | Yes
O=C(O)C(F)(F)C(F)(F)C(F)(F)C(F)(F)C(F)(F)C(F)(F)C(F)(F)C(F)F | No
CC(=O)CCC=C(C)CCC=C(C)C | No
CC(C)(C)c1cccc(O)c1 | No
CCCCOCCOCCO | No
c1ccc(Sc2ccccc2)cc1 | No
Nc1ccc(N)c([N+](=O)[O-])c1 | No
NC(=O)c1c(Cl)cccc1Cl | No
CCCCN(CCO)CCO | No
CCOC(=O)C=Cc1ccccc1 | No

* * *

# Tested on: SRD5A2 (gene 6716)
# assay_explanation: CCTE_Deisenroth_5AR_NBTE_ratio: CCTE's 5alpha-reductase NanoBRET Target Engagement Assay - Ratio, Deisenroth Lab (AID 2284322)
# stated_conditions: actives raise or lower the signal
Active and inactive are the calls of the source. How the source made its calls: active means hit-call score of the fitted dose curve at least 0.9, where 1 is the maximum; inactive means score below 0.9.
Outcomes: active, inactive

compound | assigned_class
CC/C(=C(\c1ccccc1)c1ccc(OCCN(C)C)cc1)c1ccccc1 | active
CCCO[Si](OCCC)(OCCC)OCCC | inactive
O=C1OC2(c3ccc(O)cc3Oc3cc(O)ccc32)c2ccccc21 | active
CCCCCCCCCCCCOCCOS(=O)(=O)O | active
O=C(c1ccc(OCCN2CCCCC2)cc1)c1c(-c2ccc(O)cc2)sc2cc(O)ccc12 | active

* * *

# assay_explanation: CCTE_Padilla_ZF_Score.General: CCTE's 144 Hour Post-fertilization zebrafish Assay Score for General Malformation, Padilla Lab (AID 2284411)
# Experimental: CCTE_Padilla_ZF_Phenotype_Score is a whole embryo, multiplexed assay using zebrafish ova exposed for 144 hours post fertilization on a 96-well plate.CCTE_Padilla_ZF_Score.General is one of one assay component(s) measured or calculated from the CCTE_Padilla_ZF_Phenotype_Score assay. […] This assay endpoint, CCTE_Padilla_ZF_Score.General, was analyzed in the positive analysis fitting direction relative to DMSO as the negative control and baseline of activity. […]
Activity calls are given as the source filed them. Rule for the calls: active = hit-call score of the fitted dose curve at least 0.9, where 1 is the maximum; inactive = score below 0.9.
Outcomes: Y (active), N (inactive)

molecule | assigned_class
C=C(C)C(=O)OCCC(F)(F)C(F)(F)C(F)(F)C(F)(F)C(F)(F)C(F)(F)C(F)(F)C(F)(F)F | N
CCCCCCCCCCCCS | N
OCC(F)(OC(F)(F)C(F)(OC(F)(F)C(F)(F)C(F)(F)F)C(F)(F)F)C(F)(F)F (centres undefined) | N
C=C(F)C(=O)OC(C(F)(F)F)C(F)(F)F | N
O=C(O)C(F)(F)OC(F)(F)C(F)(F)OC(F)(F)C(F)(F)C(F)(F)C(F)(F)F | Y
O=C(O)C(F)(F)C(F)(F)C(F)(F)C(F)(F)C(F)(F)C(F)(F)C(F)(F)C(F)F | N
CCOC(=O)CCCCCCCCC(=O)OCC | N
CC(=O)CCC=C(C)CCC=C(C)C | N
CC1=CC(C)C(C=O)C(C)C1 (centres undefined) (tested in a mixture with another compound) | N

* * *

# system: Estrogen receptor (Homo sapiens)
# assay_explanation: OT_ERa_GFPERaERE_0120: Odyssey Thera (OT) 2-hour HeLa Transcription Induction Assay for Estrogen Receptor (AID 2283382)
The source made the active and inactive calls. Rule for the calls: active = hit-call score of the fitted dose curve at least 0.9, where 1 is the maximum; inconclusive = response in the unintended direction; inactive = score below 0.9.
Outcomes: active, inactive

compound | assigned_class
CCC(C)C1CCCCC1=O (stereo unspecified) | inactive
CC(=O)C1C(=O)C=C(C)OC1=O (stereo unspecified) | inactive
CCCCCCCCCCCCN1CCOCC1 | inactive
NC(N)=S | inactive
Cc1cccc(O)c1 | inactive
CC(C)(C)C1CCC(O)CC1 (stereo unspecified) | inactive
c1coc(CNc2ncnc3nc[nH]c23)c1 | inactive
CCC(=O)OC(C)(C)C1CC=C(C)CC1 (stereo unspecified) | inactive
CCC(C)(C)C1CCC(OC)CC1 (stereo unspecified) | inactive
CCCCCCCCOC(C)=O | inactive
CCCCCCCCOC(=O)c1ccc(O)cc1 | active
CCOCC(C)O (stereo unspecified) | inactive
CC(C)N(c1ccccc1)C(C)C | inactive
FC(F)(F)c1ccc(Cl)c(Cl)c1 | inactive
CC12CCC(C1)C(C)(C)C2O (stereo unspecified) | inactive
CC(C)(C)c1ccc(S)cc1 | inactive

Data origin: PubChem BioAssay (EPA / NIEHS)
